Reference source: PubChem BioAssay (NCI)

Assay: NCI Yeast Anticancer Drug Screen. Data for the mlh1 rad18 strain (AID 175)
Details: S. cerevisiae mlh1 rad18 strain growth inhibition; at 5.0 µM (retest, dose inferred, filed as 0.5); active compounds read high
This is part of a sample that, as a whole, favours compounds with a hit. Of some 79,000 tested, about 15% had one in any assay.
Recorded measurements of growth inhibition, one per entry
Just the number please, in %, no unit attached.

# compound, unit_string, reported_value
records = [
    ("CC(C)(C)CC(C)(C)c1ccc(O)c(Cl)c1", "%", -4),
    ("CC#CC(=O)Nc1ccccc1CC(c1c[nH]c2ccccc12)c1c[nH]c2ccccc12", "%", 35),
    ("Cc1csc(N)[n+]1CCC(=O)[O-]", "%", 0),
    ("CCCC(C)c1ccc(O)cc1 (centres undefined)", "%", 2),
    ("Nc1ccccc1N=Nc1c(S(=O)(=O)O)cc2cc(S(=O)(=O)O)cc(O)c2c1O", "%", 5),
    ("O=C(O)Cc1ccc2c3c(cccc13)CC2", "%", 27),
    ("BrCc1ccc2ccc3ccc(CBr)nc3c2n1", "%", 8),
    ("ClC1(Cl)c2ccccc2-c2ccccc21", "%", -115),
]

Which growth inhibition is reported for this compound? CCCNC(=O)c1cc2ccccc2cc1C(=O)OC
65

Which growth inhibition is reported for this compound? C=C(CN1CCOCC1)C(=O)c1ccccc1
-13

Which growth inhibition is reported for this compound? Nc1cc(Cl)ccc1C(=O)O
21

====

Test: NCI Yeast Anticancer Drug Screen. Data for the mec2-1 strain (AID 157)
Conditions: S. cerevisiae mec2-1 strain, at 5.0 µM (retest, dose inferred, filed as 0.5), active compounds read high
The panel holds about 79,000 compounds, 15% with a hit somewhere; the sample as a whole holds those more often.
Recorded measurements of growth inhibition, one per entry
Just the number please, in %, no unit attached.

Past entries and their recorded results:
# compound, unit_string, reported_value
records = [
    ("CN1CCN(CC(C(=O)O)(c2ccccc2)c2ccccc2)CC1", "%", 3),
    ("O=C(O)C1(Cc2ccc3c(c2)CCC3)Cc2ccccc2C1=O (configuration not stated)", "%", -6),
    ("CN(C)c1ccc(C=Nc2cnc3ccccc3c2)cc1", "%", -5),
    ("COc1cc(O)c2c(c1)C(O)C(O)CC1OC1C(=O)/C=C/CC(C)OC2=O (configuration not stated)", "%", 59),
    ("CC1(C)C=CC2=C(O1)C(=O)c1ccccc1C2=O", "%", 8),
]

Which growth inhibition is reported for this compound? NC(=S)c1cccc(C2Nc3ccccc3O2)c1 (configuration not stated)
0

Which growth inhibition is reported for this compound? CC(=O)C1CCC2C3CC(F)C4(O)CC(O)CCC4(C)C3CCC12C (configuration not stated)
-3

Which growth inhibition is reported for this compound? NC1=NC2=C(CCCC2)C(c2cccs2)S1 (configuration not stated)
39

Which growth inhibition is reported for this compound? c1ccc(-n2ncc3ccc4cccn4c32)cc1
3

Which growth inhibition is reported for this compound? Cc1cc(Cl)ccc1C(=O)c1ccc2ccccc2c1C(=O)O
-15

Which growth inhibition is reported for this compound? [N-]=[N+]=NCC(O)c1ccc2c(c1)[nH]c1ccccc12 (configuration not stated)
-7

Which growth inhibition is reported for this compound? CCC(=O)Oc1c(Br)c(Br)c(Br)c(Br)c1Br
17
